Below, each of the compounds is paired with its reported solubility at 1 min value.
assay: Prodrug Solubility (visual inspection in buffer); type: physicochemical; conditions: 40 mM sodium citrate buffer, aqueous buffer, thermodynamic from solid, Sodium citrate (40 mM) pH 4, read-out: Solubility Sodium Citrate

Some solved entries appear below for comparison.
CC(=O)N(C[C@H]1CN(c2ccc(N3Cc4cn(C)nc4C3)c(F)c2)C(=O)O1)C(=O)OCOP(=O)(O)O [Compound 18a] | ≥ 2000 µg/mL
CC(=O)N(C[C@H]1CN(c2ccc(N3Cc4cn(C)nc4C3)c(F)c2)C(=O)O1)C(=O)OCOC(=O)CN(C)C | ≥ 10000 µg/mL
CNCC(=O)OCOC(=O)N(C[C@H]1CN(c2ccc(N3Cc4cn(C)nc4C3)c(F)c2)C(=O)O1)C(C)=O | ≥ 10000 µg/mL
CC(=O)N(C[C@H]1CN(c2ccc(N3Cc4cn(C)nc4C3)c(F)c2)C(=O)O1)C(=O)OCOC(=O)CN1CCOCC1 | 2500 µg/mL
CC(=O)N(C[C@H]1CN(c2ccc(N3Cc4cn(C)nc4C3)c(F)c2)C(=O)O1)C(=O)OCOC(=O)CN1CCN(C)CC1 | ≥ 10000 µg/mL

Entry CC(=O)N(C[C@H]1CN(c2ccc(N3Cc4cn(C)nc4C3)c(F)c2)C(=O)O1)C(=O)OCOC(=O)COP(=O)(O)O , solubility at 1 min reported as ≥ 5000 µg/mL

Consider CC(=O)N(C[C@H]1CN(c2ccc(N3Cc4cn(C)nc4C3)c(F)c2)C(=O)O1)C(=O)OCOC(=O)CN1CCNCC1 . Its measured solubility at 1 min is ≥ 10000 µg/mL

The measured solubility at 1 min associated with CC(=O)N(C[C@H]1CN(c2ccc(N3Cc4cn(C)nc4C3)c(F)c2)C(=O)O1)C(=O)OC(C)OC(=O)CN1CCNCC1 (some centres unmarked) reads ≥ 7500 µg/mL
